biological target: T1, cynomolgus monkey DLL4 extracellular domain (cynomolgus monkey); test: SPR (Biacore)
T1 construct: extracellular domain; also called cynoDLL4 ECD; Cyno DLL4
Overview of reported kon across a group of binders:
Give just the numeric value; M⁻¹ s⁻¹ need not be written.

h1A11.A2 (antibody, V domains shown, also called h1A11VH.1 / h1A11.A2 VL) VH: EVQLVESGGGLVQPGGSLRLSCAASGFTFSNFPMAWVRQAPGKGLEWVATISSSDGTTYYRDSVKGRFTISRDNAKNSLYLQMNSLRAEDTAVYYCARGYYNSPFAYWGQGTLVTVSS VL: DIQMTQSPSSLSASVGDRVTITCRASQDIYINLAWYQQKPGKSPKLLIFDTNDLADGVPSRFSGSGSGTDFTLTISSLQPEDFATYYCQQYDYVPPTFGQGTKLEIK	134000

Could you now look at the following binder, please?
Task item: Which measured kon value corresponds to h1A11.1 (antibody, V domains shown, humanized IgG; also called hu1A11.1; VH.1/VL.1 1A11) VH: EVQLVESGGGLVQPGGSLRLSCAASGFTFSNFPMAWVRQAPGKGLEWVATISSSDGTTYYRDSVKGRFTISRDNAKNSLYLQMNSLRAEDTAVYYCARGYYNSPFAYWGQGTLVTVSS VL: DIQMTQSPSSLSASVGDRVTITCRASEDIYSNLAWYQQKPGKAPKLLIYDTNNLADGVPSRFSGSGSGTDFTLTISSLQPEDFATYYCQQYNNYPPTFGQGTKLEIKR ?
Reply: 144000
